Assay: reporter signal increase, D54 LucT cells – cell-based, luminescence, cherry pick, counter-screen for N-linked glycosylation inhibitor project, dose response (AID 624404)
Settings: D54 LucT luciferase reporter counterscreen, 24 h; series mostly up to 19.5 µM
The whole screen tested about 1,800 compounds, of which about 710 (39%) were called active. Roughly 28% stayed inconclusive and do not appear here. The list is a sample of the results. Entries with a potency or affinity are not part of this list.
Measurement Kind: outcome

compound=O=C(OCn1ncc(Cl)c(Cl)c1=O)c1ccc(C(F)(F)F)cc1 measurement_kind=outcome measurement=inactive
compound=CCOc1ccc(Nc2c3ccccc3nc3ccccc23)cc1 measurement_kind=outcome measurement=inactive
compound=Cc1cc2nnc(SCC(=O)NCc3cccs3)n2c2ccccc12 measurement_kind=outcome measurement=inactive
compound=CCOC(=O)c1ccc(/C=C2/C=C(c3ccccc3)N(c3ccc(Cl)c(C(=O)O)c3)C2=O)cc1 measurement_kind=outcome measurement=inactive
compound="COc1cc2c(cc1OC)C(c1cc(Br)ccc1F)N(C(=O)CCl)CC2 (stereo not drawn)" measurement_kind=outcome measurement=inactive
compound=COc1ccc2c(-c3cc4ccc(OCc5ccc(F)cc5)cc4oc3=O)cc(=O)oc2c1 measurement_kind=outcome measurement=inactive
compound=Cn1c(SCC(=O)c2ccccc2)ncc(C(=O)Nc2ccc(F)cc2)c1=O measurement_kind=outcome measurement=inactive
compound=Nc1nonc1-c1nc2ccccc2n1Cc1ccccc1 measurement_kind=outcome measurement=inactive
compound=Cc1nn(C(C)(C)C)c(OC(=O)c2ccc3c(c2)OCO3)c1Sc1ccccc1 measurement_kind=outcome measurement=inactive
compound=CCN(CC)CCCNC(=O)CSc1c2c(nc3cc(Cl)ccc13)CCCC2 measurement_kind=outcome measurement=inactive
compound=O=C(/C=C/c1ccc([N+](=O)[O-])s1)N1CCCCC1 measurement_kind=outcome measurement=inactive
compound="COc1ccc(CNC(=O)C2Cc3c(-c4ccc5c(c4)OCO5)ccnc3O2)cc1OC (stereo not drawn)" measurement_kind=outcome measurement=inactive
compound=Cc1ccccc1OCCc1c(C)[nH]c(=S)[nH]c1=O measurement_kind=outcome measurement=inactive
compound="NC(=O)[C@H]1CC2(CC(c3cccc(NC(=O)COc4ccc(Cl)cc4)c3)=NO2)CN1C(=O)C(c1ccccc1)c1ccccc1 (stereo partly drawn)" measurement_kind=outcome measurement=inactive
compound=Cc1nc([N+](=O)[O-])c(Sc2nc3ccccc3[nH]2)n1Cc1ccccc1 measurement_kind=outcome measurement=inactive
compound=O=C(C=Cc1ccc2c(c1)OCO2)C=Cc1ccc2c(c1)OCO2 measurement_kind=outcome measurement=inactive
compound=CCN1/C(=C/c2sc(-c3ccccc3C)c[n+]2C)Sc2ccccc21 measurement_kind=outcome measurement=inactive
compound=O=C(O)CCC/C=C\C[C@@H]1[C@@H](/C=C/[C@@H](O)COc2cccc(Cl)c2)[C@H](O)C[C@@H]1O measurement_kind=outcome measurement=inactive
compound=O=C(CCl)Nc1ccc(Sc2ccc(NC(=O)CCl)cc2)cc1 measurement_kind=outcome measurement=inactive
compound="CC1Cc2ccccc2N1C(=O)CSc1nn2c(=O)c(C(C)(C)C)nnc2s1 (stereo not drawn)" measurement_kind=outcome measurement=inactive
compound="O=C(NC1CCCCC1)C(c1cccnc1)N(C(=O)CCl)c1cccc(Cl)c1 (stereo not drawn)" measurement_kind=outcome measurement=inactive
compound=Cc1cc2c(=Cc3ccc(N(C)C)cc3)c3ccccc3n2[n+]1C measurement_kind=outcome measurement=inactive
compound=CCn1cc2nc(SCC(=O)Nc3ccc(OC)cc3OC)n(Cc3ccc(OC)cc3)c(=O)c2n1 measurement_kind=outcome measurement=inactive
compound=NC(N)=N/N=C/c1ccc2cccc(OCc3ccccc3)c2n1 measurement_kind=outcome measurement=inactive
compound=COc1cc(-c2noc(C)c2/C=C/c2ccc(N)cc2)cc(OC)c1OC measurement_kind=outcome measurement=inactive
compound=CC(C)Oc1ccc(C(=O)/C=C2/C(=O)Nc3ccccc32)cc1 measurement_kind=outcome measurement=inactive
compound=COC(=O)c1cc(=O)n(Cc2ccc3c(c2)OCO3)c(=Nc2ccc(F)c(Cl)c2)s1 measurement_kind=outcome measurement=inactive
compound=Cn1cnc([N+](=O)[O-])c1S(=O)(=O)Oc1ccccc1 measurement_kind=outcome measurement=inactive
compound=COc1ccc(Cn2c(=O)c3[nH]cnc3n(-c3ccccc3C)c2=O)cc1 measurement_kind=outcome measurement=inactive
compound=Cc1ccsc1CNc1ncnc2ccc(-c3c(C)noc3C)cc12 measurement_kind=outcome measurement=inactive
compound="CC1CN(C(=O)/C=C/c2ccc([N+](=O)[O-])s2)CC(C)O1 (stereo not drawn)" measurement_kind=outcome measurement=inactive
compound="COc1cc(C2c3cc4c(cc3OC(Nc3ccc(C(=O)O)cc3)C2C)OCO4)cc(OC)c1OC (stereo not drawn)" measurement_kind=outcome measurement=inactive
compound="COCCOC(=O)c1[nH]c2c(c1C)C(=O)CC(c1ccco1)C2 (stereo not drawn)" measurement_kind=outcome measurement=inactive
compound="Cc1[nH]nc2c1C(c1cccc(O)c1)C1=C(CC(C)(C)CC1=O)N2 (stereo not drawn)" measurement_kind=outcome measurement=inactive
compound="COc1ccc(CN2C(=O)C(C)Nc3ncnc(N4CCc5ccccc5C4)c32)cc1 (stereo not drawn)" measurement_kind=outcome measurement=inactive
compound=O=C(N/N=C/c1cccnc1)c1cc(-c2ccc(Br)cc2)nc2ccccc12 measurement_kind=outcome measurement=inactive
compound=O=C1/C(=C/c2ccccc2)CCc2ccc(Cl)nc21 measurement_kind=outcome measurement=inactive
compound=c1cc2c3c(cccc3c1)C(N1CCCCC1)=N2 measurement_kind=outcome measurement=inactive
compound=NC(=O)/C=C\C(=O)Nc1cccc(C(F)(F)F)c1 measurement_kind=outcome measurement=inactive
compound=CC(=O)/C=C/c1ccccc1Oc1c(F)c(F)nc(F)c1F measurement_kind=outcome measurement=inactive
compound=CC(=O)c1cccc(NC(=O)CSc2ncc(C(=O)Nc3ccccc3)c(=O)n2C)c1 measurement_kind=outcome measurement=inactive
compound=Cc1ccc(C(=O)NC(=C(Cl)Cl)S(=O)(=O)c2ccc(C)cc2)cc1 measurement_kind=outcome measurement=inactive
compound=Oc1ccc(N=Nc2ccccc2)o1 measurement_kind=outcome measurement=inactive
